Listing of entries alongside the reported pIC50.
test system: P388/0; assay: In vitro cytotoxicity assay (Alamar Blue), P388/0 cells; format: cell-based; details: Mus musculus, 72 h, 3 days incubation
pIC50: −log10 of the molar value.

| SMILES RECORD | pIC50 |
| --- | --- |
| Nc1ccn([C@@H]2O[C@H](CO)[C@@H](O)[C@@H]2O)c(=O)n1 | 8.00 |
| Nc1ccn([C@@H]2O[C@H](CO)[C@@H](O)C2(F)F)c(=O)n1 | 8.70 |
